These measurements were taken from the OPERA property sets (Mansouri et al. 2018).

reported property: logP

{"molecule": "CN(C(=O)C(Cl)Cl)c1ccc(OC(=O)c2ccco2)cc1", "observed result": 2.24}
{"molecule": "O=C1CC2C(=O)NCC2CN1 (configuration not stated)", "observed result": -2.11}
{"molecule": "C=CCOc1ccccc1OCC(CNC(C)C)OC(=O)C(C)C (configuration not stated)", "observed result": 3.77}
{"molecule": "Cc1ccc(-c2ccc(C)cc2)cc1", "observed result": 5.09}
{"molecule": "N#CCCN(N)c1nc2cc(C(F)(F)F)ccc2o1", "observed result": 1.72}
{"molecule": "COCOCCn1cnc2c(=N)n(C)c(=O)[nH]c21", "observed result": -1.52}
{"molecule": "O=C(Nc1ccc(Cl)cc1)c1cc([N+](=O)[O-])ccc1O", "observed result": 2.54}
{"molecule": "CCN(O)CC", "observed result": -0.17}
{"molecule": "CC(=O)OCn1cc2c(=O)n(COC(C)=O)cnc2n1", "observed result": -0.2}
{"molecule": "BrCC1CO1 (configuration not stated)", "observed result": 0.85}
{"molecule": "CSc1nc(C(Cl)(Cl)Cl)nc(C(Cl)(Cl)Cl)n1", "observed result": 4.42}
{"molecule": "CCCCC1CO1 (configuration not stated)", "observed result": 1.95}
{"molecule": "CN(C)P(=O)(N(C)C)N1CCCC1", "observed result": 0.82}
{"molecule": "Nc1cccc2cccc(N)c12", "observed result": 1.78}
{"molecule": "O=[N+]([O-])c1cc(C(F)F)c(Nc2ncc(C(F)(F)F)cc2Cl)c([N+](=O)[O-])c1", "observed result": 3.52}
{"molecule": "CCCNc1nc(C)nc(C(Cl)(Cl)Cl)n1", "observed result": 3.29}
{"molecule": "Clc1cccc2c(Cl)cccc12", "observed result": 4.67}
{"molecule": "CC(C)c1ccc(C=[N+]([O-])c2ccccc2)cc1", "observed result": 3.37}
{"molecule": "CSc1ccc(C(N)=S)cc1", "observed result": 2.01}
{"molecule": "O=C1c2ccccc2C(=O)N1SC1CCCCC1", "observed result": 3.66}
{"molecule": "Clc1ccc(C2OC2c2ccccc2)cc1 (configuration not stated)", "observed result": 4.54}
{"molecule": "CN1CC=C(c2ccc(Cl)cc2)CC1", "observed result": 3.32}
{"molecule": "CCC/N=C(N)/N=C(\\N)Nc1ccc(Cl)cc1", "observed result": 2.63}
{"molecule": "C/C=C(/C)C(=O)O[C@H]1CCN2CC=C(COC(=O)[C@](O)([C@H](C)OC)C(C)(C)O)[C@H]12", "observed result": 1.28}
{"molecule": "Cc1cc(C)c(NC(=O)CN(CC(=O)O)CC(=O)O)c(C)c1Br", "observed result": 0.11}
{"molecule": "NS(=O)(=O)c1nc2ccc(OCc3ccccc3)cc2s1", "observed result": 3.18}
{"molecule": "CC(=O)OCCOCn1cnc2c(=O)[nH]c(N)nc21", "observed result": -1.07}
{"molecule": "C=C(C)C1CCC(C)(O)C1C (configuration not stated)", "observed result": 2.87}
{"molecule": "CCCCCCN1CCCC1=O", "observed result": 2.6}
{"molecule": "FC(F)(F)c1cccc(Cn2cncn2)c1", "observed result": 1.74}
{"molecule": "Cn1cnc2c(N)ncnc21", "observed result": -0.03}
{"molecule": "O=C(O)C1C2CCC(O2)C1C(=O)O (configuration not stated)", "observed result": 1.91}
{"molecule": "CCCNC(=O)CCC(NS(=O)(=O)c1ccccc1)C(=O)O (configuration not stated)", "observed result": 0.01}
{"molecule": "COc1ccc2cc(CCC(C)=O)ccc2c1", "observed result": 3.08}
{"molecule": "CC(=NN=C(N)N)c1cccs1", "observed result": 1.05}
{"molecule": "CCCCC(C)O (configuration not stated)", "observed result": 1.76}
{"molecule": "Clc1ccc(Cl)nn1", "observed result": 0.7}
{"molecule": "CCCCCCC", "observed result": 4.66}
{"molecule": "Clc1ccc(-c2ccccc2Cl)cc1Cl", "observed result": 5.87}
{"molecule": "Nc1ccc(S(=O)(=O)O)c(N)c1", "observed result": -4.65}
{"molecule": "Cc1cccc(Nc2ccccc2C(=O)O)c1", "observed result": 4.88}
{"molecule": "CN(C)c1cnn(-c2ccccc2)c(=O)c1Cl", "observed result": 1.55}
{"molecule": "C#CC(C)(C)NC(=O)c1cc(Cl)cc(Cl)c1", "observed result": 3.43}
{"molecule": "O=[N+]([O-])c1cncn1CCN1CCOCC1", "observed result": 0.07}
{"molecule": "O=c1[nH]c2ccccc2n1CCCN1CCC(n2c(=O)[nH]c3cc(Cl)ccc32)CC1", "observed result": 3.9}
{"molecule": "O=C1CCC(=O)N1c1cc(Cl)cc(Cl)c1", "observed result": 1.4}
{"molecule": "OCc1ccccc1Cl", "observed result": 1.77}
{"molecule": "CC1=CCC2CC1C2(C)C (configuration not stated)", "observed result": 4.83}
{"molecule": "N=C(N)NN=C1C=CC(=NNC(N)=S)C=C1", "observed result": 1.23}
{"molecule": "CC(C)c1ccc(NC(=O)CN(CC(=O)O)CC(=O)O)cc1Br", "observed result": -0.08}
{"molecule": "Nc1cc([N+](=O)[O-])ccc1Cl", "observed result": 2.23}
{"molecule": "CCn1ccc(=O)c(O)c1", "observed result": -0.4}

###

Here the recorded logP is given for each entry.
reported property: logP

{"compound": "CCCCCCCCC1(CC)C(=O)NC(=O)NC1=O", "reported property": "logP", "observed result": 3.78}
{"compound": "O=C(O)CCOc1cccc2ccccc12", "reported property": "logP", "observed result": 3}
{"compound": "CC(C)OC(C)(C)C", "reported property": "logP", "observed result": 2.14}
{"compound": "OC(CN1C2CCOCC21)Cn1ccnc1 (configuration not stated)", "reported property": "logP", "observed result": 0.07}
{"compound": "COC1=CC(=O)C(OC)=C(OC)C1=O", "reported property": "logP", "observed result": 0.22}
{"compound": "CC(CCl)OC(C)CCl (configuration not stated)", "reported property": "logP", "observed result": 2.48}
{"compound": "C=COCCn1cnc2[nH]c(=O)n(C)c(=N)c21", "reported property": "logP", "observed result": -0.78}

###

reported property: solubility (mM)

{"test smiles": "c1ccc2c(c1)ccc1ccccc12", "reported property": "solubility", "observed result": 0.00645}
{"test smiles": "Cc1ccc(OP(=O)(Oc2ccc(C)cc2)Oc2ccc(C)cc2)cc1", "reported property": "solubility", "observed result": 0.000814}
{"test smiles": "Cc1ncc(CO)c(C=O)c1O.Cl", "reported property": "solubility", "observed result": 2460}
{"test smiles": "O=C(O)c1ccccc1S(=O)(=O)O", "reported property": "solubility", "observed result": 2470}

###

Where a SMILES comes first, the peptide text is derived from it.
Bucketed by reported logP, buckets being lower bin (below 0.9), middle bin (0.9 to below 2), upper bin (2 or more)

{"compound": "CC1(C)Cc2cccc([N+](=O)[O-])c2O1", "category": "upper bin"}
{"compound": "CC[C@H](C)[C@H](NC(=O)[C@@H](NC(=O)[C@@H](NC(C)=O)C(C)C)C(C)C)C(N)=O (Ac-Val-Val-Ile-NH2)", "category": "lower bin"}
{"compound": "O=C(O)CNC(=O)c1ccc(I)cc1", "category": "middle bin"}
{"compound": "CN(CCN)S(=O)(=O)c1ccc(C(C)(C)[N+](=O)[O-])c([N+](=O)[O-])c1", "category": "lower bin"}
{"compound": "CC(C)(O)C(=O)Nc1ccc([N+](=O)[O-])cc1", "category": "middle bin"}
{"compound": "CC(=O)c1cccc(NCc2cnc3nc(N)nc(N)c3c2C)c1", "category": "middle bin"}
{"compound": "Cc1cn([C@H]2C=C[C@@H](CO)O2)c(=O)[nH]c1=S", "category": "lower bin"}
{"compound": "CNC(=O)CCc1c[nH]c2ccccc12", "category": "middle bin"}
{"compound": "C=C(Br)CC1(C(C)CC)C(=O)NC(=O)NC1=O (stereo not drawn)", "category": "upper bin"}
{"compound": "CC(C)(C)c1ccc2oc(N(N)CCC#N)nc2c1", "category": "upper bin"}
{"compound": "O=C(O)C(=O)Nc1nc(-c2ccc3c(c2)OCCO3)cs1", "category": "middle bin"}
{"compound": "CC=O", "category": "lower bin"}
{"compound": "CCOP(=O)(CN(CCO)CCO)OCC", "category": "lower bin"}
{"compound": "C=CCN1CCC(CNC(=O)c2cc3nn[nH]c3cc2OC)C1 (stereo not drawn)", "category": "middle bin"}
{"compound": "O=c1[nH]c(=O)c2[nH]c(=O)[nH]c2[nH]1", "category": "lower bin"}
{"compound": "COc1nc(NC(C)C)nc(NC(C)C)n1", "category": "upper bin"}
{"compound": "COc1cccc(C=O)c1", "category": "middle bin"}
{"compound": "OC(CNC1CCCCC1Br)Cn1ccnc1 (stereo not drawn)", "category": "middle bin"}
{"compound": "ClC1=C(Cl)C2(Cl)C(Cl)=C(Cl)C3CC1C(Cl)C32 (stereo not drawn)", "category": "upper bin"}
{"compound": "CC(C)C(C#N)c1ccc([N+](=O)[O-])cc1 (stereo not drawn)", "category": "upper bin"}
{"compound": "CC(O)CNc1ccccc1C(N)=O (stereo not drawn)", "category": "lower bin"}
{"compound": "O=[N+]([O-])c1cc(Cl)cc(Cl)c1", "category": "upper bin"}
{"compound": "c1ccc2c(c1)[nH]c1cnccc12", "category": "upper bin"}
{"compound": "NS(=O)(=O)c1nn2c(=Nc3ccccc3)snc2s1", "category": "upper bin"}
{"compound": "O=c1cc(CO)occ1O", "category": "lower bin"}
{"compound": "CCC(=O)OCN1C(=O)NC(c2ccccc2)(c2ccccc2)C1=O", "category": "upper bin"}
{"compound": "COC(=O)C1CCN1CC(O)Cn1ccnc1 (stereo not drawn)", "category": "lower bin"}
{"compound": "COC(=O)Nc1cccc(F)c1", "category": "upper bin"}
{"compound": "NC(=S)NN=Cc1ccco1", "category": "middle bin"}
{"compound": "CN1CC=C(c2ccncc2)CC1", "category": "middle bin"}
{"compound": "CC(=O)c1ccc(NCc2cnc3nc(N)nc(N)c3c2C)cc1", "category": "middle bin"}
{"compound": "NC(=O)N=NC(N)=O", "category": "lower bin"}
{"compound": "Cc1ccc(CN)cc1", "category": "middle bin"}
